Listed next: entries and their corresponding Residual rate.
# ASSAY_NOTES: Evaluation of conversion rate to active form in buffer solution (Experimental Example 1)
# Format: physicochemical
# MEASUREMENT_SETUP: pH5.0, 0 hr, 37° C., 25 umol/L in buffer solution
The reply should be a number in %, with the unit left off.

Please review the entries below; each comes with its answer.
MOLECULE: CCCN(C[C@@H]1CCCCN1)C(=O)Oc1cc(O)c2c(=O)cc(-c3ccccc3Cl)oc2c1[C@H]1CCN(C)C[C@H]1O
Residual rate, %: 98.7
--
MOLECULE: CCN(C[C@H]1CCCCN1)C(=O)Oc1cc(O)c2c(=O)cc(-c3ccccc3Cl)oc2c1[C@H]1CCN(C)C[C@H]1O
Residual rate, %: 95.5
--
MOLECULE: CN1CC[C@H](c2c(OC(=O)N(C)CC3CCCCN3)cc(O)c3c(=O)cc(-c4ccccc4Cl)oc23)[C@H](O)C1 (stereo partly drawn)
Residual rate, %: 95.4
--
MOLECULE: CN1CC[C@H](c2c(OC(=O)N(CCF)CC3CCCCN3)cc(O)c3c(=O)cc(-c4ccccc4Cl)oc23)[C@H](O)C1 (stereo partly drawn)
Residual rate, %: 83.2
--
MOLECULE: CN1CC[C@H](c2c(OC(=O)N(C)C[C@H]3CCCCN3)cc(O)c3c(=O)cc(-c4ccccc4Cl)oc23)[C@H](O)C1
Residual rate, %: 99.3

For the molecule CN1CC[C@H](c2c(OC(=O)N(CCCC(F)(F)F)CC3CCCCN3)cc(O)c3c(=O)cc(-c4ccccc4Cl)oc23)[C@H](O)C1 (stereo partly drawn) , what Residual rate is on record? 56.6
